Experiment: Pharmacokinetics: blood residual concentration after intraperitoneal injection
Format: in vivo, C57BL/6J
Settings: C57BL/6J, mouse, plasma, ip, 13.5 mg/kg intraperitoneal, read-out: Cmax
Protocol: The pharmacokinetic indices were calculated by measuring the blood residual concentrations of GL derivatives. Specifically, GL and GL-PEG-AHP were injected intraperitoneally in an amount of 13.5 mg/kg into animals (C57BL/6J, 6 weeks old, 5 per cage). At each time point (0, 20, 30, 120, 240, and 480 minutes) following the intraperitoneal injection, the animals were sacrificed, and 300 μl of blood samples were obtained through the abdominal vein. […]
parameter: Cmax

I would be grateful if you could share the reported Cmax for `CC1(C)[C@@H](O[C@H]2O[C@H](C(=O)O)[C@@H](O)[C@H](O)[C@H]2O[C@@H]2O[C@H](C(=O)O)[C@@H](O)[C@H](O)[C@H]2O)CC[C@]2(C)[C@H]3C(=O)C=C4[C@@H]5C[C@@](C)(C(=O)O)CC[C@]5(C)CC[C@@]4(C)[C@]3(C)CC[C@@H]12` .
43800 ng/mL

* * *

Test: Pharmacokinetics: blood residual concentration after intraperitoneal injection
Assay type: in vivo, C57BL/6J
Conditions: C57BL/6J, mouse, plasma, ip, 13.5 mg/kg intraperitoneal, read-out: Tmax (converted)
Experimental: The pharmacokinetic indices were calculated by measuring the blood residual concentrations of GL derivatives. Specifically, GL and GL-PEG-AHP were injected intraperitoneally in an amount of 13.5 mg/kg into animals (C57BL/6J, 6 weeks old, 5 per cage). At each time point (0, 20, 30, 120, 240, and 480 minutes) following the intraperitoneal injection, the animals were sacrificed, and 300 μl of blood samples were obtained through the abdominal vein. […]
parameter: Tmax

So what's the measured Tmax for this one? `CC1(C)[C@@H](O[C@H]2O[C@H](C(=O)O)[C@@H](O)[C@H](O)[C@H]2O[C@@H]2O[C@H](C(=O)O)[C@@H](O)[C@H](O)[C@H]2O)CC[C@]2(C)[C@H]3C(=O)C=C4[C@@H]5C[C@@](C)(C(=O)O)CC[C@]5(C)CC[C@@]4(C)[C@]3(C)CC[C@@H]12`
20 min
